molecular target: DAT: dopamine transporter (Homo sapiens)
Sequence (Q01959 whole entry): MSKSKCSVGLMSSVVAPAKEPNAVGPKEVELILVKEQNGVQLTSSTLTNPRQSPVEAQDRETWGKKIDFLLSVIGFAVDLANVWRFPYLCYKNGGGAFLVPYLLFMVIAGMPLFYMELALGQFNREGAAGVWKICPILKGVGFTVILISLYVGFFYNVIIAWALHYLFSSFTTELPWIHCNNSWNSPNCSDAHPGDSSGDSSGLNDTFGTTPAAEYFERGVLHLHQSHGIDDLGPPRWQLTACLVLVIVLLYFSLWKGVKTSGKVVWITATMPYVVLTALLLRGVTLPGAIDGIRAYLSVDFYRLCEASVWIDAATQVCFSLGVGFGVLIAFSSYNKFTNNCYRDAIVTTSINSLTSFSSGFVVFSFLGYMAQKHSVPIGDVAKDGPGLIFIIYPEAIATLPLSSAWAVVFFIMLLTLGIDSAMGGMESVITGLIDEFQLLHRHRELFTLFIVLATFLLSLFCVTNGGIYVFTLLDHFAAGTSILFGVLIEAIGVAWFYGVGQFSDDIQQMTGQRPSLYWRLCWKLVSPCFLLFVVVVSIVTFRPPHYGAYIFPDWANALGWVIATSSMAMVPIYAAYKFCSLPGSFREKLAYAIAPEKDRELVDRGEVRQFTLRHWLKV
measured.quantity: pKi
For clarity, pKi is expressed as the negative log10 of concentration in mol/L.

Tell me its pKi on DAT: dopamine transporter (Homo sapiens): CN(CCOc1cc(COc2cc(Cl)cc(Cl)c2)on1)C1CCC1.Cl [Compound 24]
5.74

Tell me its pKi on DAT: dopamine transporter (Homo sapiens): Cl.Clc1cccc(OCc2cc(OCCNC3CCC3)no2)c1 [Compound 29]
5.82

Tell me its pKi on DAT: dopamine transporter (Homo sapiens): CN(CCOc1cc(COc2ccc(F)cc2)on1)C1CCC1.Cl [Compound 18]
5.25

----------
target: σ1 receptor (Cavia porcellus, UniProt Q60492); construct: σ1 receptor, [^3H]-(+)-pentazocine, Guinea pig brain homogenate; from tissue; host or cells: Guinea pig brain homogenate; assay: Radioligand binding at σ1 receptor ([3H]-(+)-pentazocine, NIMH PDSP); set-up: species or system Guinea pig; conditions: [3H]-(+)-pentazocine; Guinea pig brain homogenate; mean ± SEM, three independent experiments
Sequence (Q60492 whole entry): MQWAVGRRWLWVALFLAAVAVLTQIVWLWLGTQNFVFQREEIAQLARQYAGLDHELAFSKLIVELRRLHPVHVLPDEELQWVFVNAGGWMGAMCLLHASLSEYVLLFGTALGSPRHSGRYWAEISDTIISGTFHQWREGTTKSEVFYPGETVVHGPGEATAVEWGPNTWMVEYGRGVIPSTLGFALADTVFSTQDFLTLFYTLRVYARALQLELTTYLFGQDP
measured.quantity: pKi
For clarity, pKi is expressed as the negative log10 of concentration in mol/L.

Below, each entry is followed by its recorded pKi result.
{"compound": "CN(CCOc1cc(COc2ccc(F)c(Cl)c2)on1)C1CCC1.Cl [Compound 25]", "measured.quantity": "pKi", "val": 8.89}
{"compound": "Cc1cccc(OCc2cc(OCCN(C)C3CCC3)no2)c1.Cl [Compound 27]", "measured.quantity": "pKi", "val": 8.38}
{"compound": "CN(CCOc1cc(COc2ccc(Br)cc2)on1)C1CCC1.Cl [Compound 20]", "measured.quantity": "pKi", "val": 8.26}
{"compound": "CN(CCOc1cc(COc2ccc(F)cc2)on1)C1CCC1.Cl [Compound 18]", "measured.quantity": "pKi", "val": 9.05}
{"compound": "CN(CCOc1cc(COc2cccc(Br)c2)on1)C1CCC1.Cl [Compound 19]", "measured.quantity": "pKi", "val": 9.10}
{"compound": "Cl.c1ccc(OCc2cc(OCCNC3CCC3)no2)cc1 [Compound 28]", "measured.quantity": "pKi", "val": 9.70}
{"compound": "CN(CCOc1cc(COc2ccc(F)c(F)c2)on1)C1CCC1.Cl [Compound 21]", "measured.quantity": "pKi", "val": 8.77}
{"compound": "Cl.c1ccc(OCc2cc(OCCN(C3CCC3)C3CCC3)no2)cc1 [Compound 30]", "measured.quantity": "pKi", "val": 7.80}

Kindly consider the entry below.
Tell me its pKi on σ1 receptor (Cavia porcellus, UniProt Q60492): CN(CCOc1cc(COc2cc(F)cc(F)c2)on1)C1CCC1.Cl [Compound 22]
8.62

----------
Target: σ2 receptor (Rattus norvegicus, UniProt Q5U3Y7)
Construct: (b) σ2 receptor, [^3H]-DTG, PC-12 cells; endogenous in cells
Sequence (Q5U3Y7 1-176): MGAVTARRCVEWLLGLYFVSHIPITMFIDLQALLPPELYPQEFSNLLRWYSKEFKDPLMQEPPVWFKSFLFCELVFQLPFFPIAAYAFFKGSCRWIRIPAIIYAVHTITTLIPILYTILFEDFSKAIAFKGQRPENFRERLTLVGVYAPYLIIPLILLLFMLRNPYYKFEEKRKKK
Experiment: Radioligand binding at σ2 receptor ([3H]-DTG, NIMH PDSP)
Conditions: [3H] DTG; PC12 cells; mean ± SEM, three independent experiments
Lab note: compare Ki with 90 nM, writing rule met if less and rule not met if equal or more.

{"smiles.text": "CN(CCOc1cc(COc2cc(F)cc(F)c2)on1)C1CCC1.Cl", "measured.on": "σ2 receptor (Rattus norvegicus, UniProt Q5U3Y7)", "assigned.class": "rule met"}
{"smiles.text": "CN(CCOc1cc(COc2ccc(Cl)c(Cl)c2)on1)C1CCC1.Cl", "measured.on": "σ2 receptor (Rattus norvegicus, UniProt Q5U3Y7)", "assigned.class": "rule met"}
{"smiles.text": "CN(CCOc1cc(COc2ccc(F)c(F)c2)on1)C1CCC1.Cl", "measured.on": "σ2 receptor (Rattus norvegicus, UniProt Q5U3Y7)", "assigned.class": "rule not met"}

I wonder whether "CN(CCOc1cc(COc2ccc(Br)cc2)on1)C1CCC1.Cl" has Ki below 90 nM. Can you tell?
rule met

----------
target: σ1 receptor (Cavia porcellus, UniProt Q60492); construct: σ1 receptor, [^3H]-(+)-pentazocine, Guinea pig brain homogenate; from tissue; host or cells: Guinea pig brain homogenate; experiment: Radioligand binding at σ1 receptor ([3H]-(+)-pentazocine, NIMH PDSP); set-up: species or system Guinea pig; conditions: ratio of Ki σ2 to Ki σ1
# Lookup of reported Selectivity (Ki σ2/Ki σ1) keyed by entry
Reply: number alone, nothing else.

{"compound": "CN(CCOc1cc(COc2ccc(F)c(Cl)c2)on1)C1CCC1.Cl [Compound 25]", "val": 25}
{"compound": "CN(CCOc1cc(COc2ccc(F)c(F)c2)on1)C1CCC1.Cl [Compound 21]", "val": 90}
{"compound": "Cl.c1ccc(OCc2cc(OCCNC3CCC3)no2)cc1 [Compound 28]", "val": 990}
{"compound": "CN(CCOc1cc(COc2cccc(F)c2)on1)C1CCC1.Cl [Compound 17]", "val": 48}
{"compound": "CN(CCOc1cc(COc2ccccc2)on1)C1CCC1 [Compound 7]", "val": 171}
{"compound": "Cc1cccc(OCc2cc(OCCN(C)C3CCC3)no2)c1.Cl [Compound 27]", "val": 29.5}
{"compound": "CN(CCOc1cc(COc2cc(F)cc(F)c2)on1)C1CCC1.Cl [Compound 22]", "val": 24}
{"compound": "Cl.Clc1cccc(OCc2cc(OCCNC3CCC3)no2)c1 [Compound 29]", "val": 161}
{"compound": "CN(CCOc1cc(COc2ccc(Br)cc2)on1)C1CCC1.Cl [Compound 20]", "val": 16}

Kindly consider the entry below.
Tell me its Selectivity (Ki σ2/Ki σ1) on σ1 receptor (Cavia porcellus, UniProt Q60492): CN(CCOc1cc(COc2cccc(Br)c2)on1)C1CCC1.Cl [Compound 19]
131

----------
# Lookup of reported pKi keyed by entry
biological target: σ1 receptor (Cavia porcellus, UniProt Q60492); construct: σ1 receptor, [^3H]-(+)-pentazocine, Guinea pig brain homogenate; from tissue; host or cells: Guinea pig brain homogenate; experiment: Radioligand binding at σ1 receptor ([3H]-(+)-pentazocine, NIMH PDSP); design: species or system Guinea pig; details: [3H]-(+)-pentazocine; Guinea pig brain homogenate; mean ± SEM, three independent experiments
For clarity, pKi is expressed as the negative log10 of concentration in mol/L.

Below, each entry is followed by its recorded pKi result.
{"smiles.text": "CN(CCOc1cc(COc2cc(Cl)cc(Cl)c2)on1)C1CCC1.Cl", "pKi": 8.11}
{"smiles.text": "CN(CCOc1cc(COc2cccc(C(F)(F)F)c2)on1)C1CCC1.Cl", "pKi": 8.40}
{"smiles.text": "CN(CCOc1cc(COc2cccc(F)c2)on1)C1CCC1.Cl", "pKi": 8.72}
{"smiles.text": "CN(CCOc1cc(COc2ccc(Cl)c(Cl)c2)on1)C1CCC1.Cl", "pKi": 8.49}

Please give measured pKi of the following entry: "Cl.Clc1cccc(OCc2cc(OCCNC3CCC3)no2)c1"
9.40

----------
Target or system NET: norepinephrine transporter (Homo sapiens, UniProt P23975); recorded quantity Ki.
Return type: number; implicit unit nM.

Below, each entry is followed by its recorded Ki result.
{"smiles.text": "Cl.c1ccc(OCc2cc(OCCNC3CCC3)no2)cc1", "val": 7100}
{"smiles.text": "Cl.Clc1cccc(OCc2cc(OCCNC3CCC3)no2)c1", "val": 600}
{"smiles.text": "CN(CCOc1cc(COc2cc(F)cc(F)c2)on1)C1CCC1.Cl", "val": 2880}
{"smiles.text": "CN(CCOc1cc(COc2ccc(F)c(Cl)c2)on1)C1CCC1.Cl", "val": 1780}

Tell me its Ki on NET: norepinephrine transporter (Homo sapiens, UniProt P23975): "CN(CCOc1cc(COc2cc(Cl)cc(Cl)c2)on1)C1CCC1.Cl"
Sequence (P23975 whole entry): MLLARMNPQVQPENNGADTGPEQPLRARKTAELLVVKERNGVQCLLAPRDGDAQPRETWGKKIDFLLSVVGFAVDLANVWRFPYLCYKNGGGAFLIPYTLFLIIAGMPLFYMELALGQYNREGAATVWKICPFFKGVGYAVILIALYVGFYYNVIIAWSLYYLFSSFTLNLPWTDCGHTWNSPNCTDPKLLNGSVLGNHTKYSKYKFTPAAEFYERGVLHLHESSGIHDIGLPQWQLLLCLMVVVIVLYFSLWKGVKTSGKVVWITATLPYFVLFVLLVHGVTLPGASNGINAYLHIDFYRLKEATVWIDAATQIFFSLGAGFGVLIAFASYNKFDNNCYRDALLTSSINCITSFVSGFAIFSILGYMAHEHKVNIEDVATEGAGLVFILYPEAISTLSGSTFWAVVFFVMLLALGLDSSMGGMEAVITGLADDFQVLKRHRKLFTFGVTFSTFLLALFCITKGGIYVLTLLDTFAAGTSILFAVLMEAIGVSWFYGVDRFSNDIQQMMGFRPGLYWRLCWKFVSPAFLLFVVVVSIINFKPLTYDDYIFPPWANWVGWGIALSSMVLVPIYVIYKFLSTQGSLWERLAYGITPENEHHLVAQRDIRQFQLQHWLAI
1610

----------
target: σ2 receptor (Rattus norvegicus); construct: (b) σ2 receptor, [^3H]-DTG, PC-12 cells; endogenous in cells; assay: Radioligand binding at σ2 receptor ([3H]-DTG, NIMH PDSP); conditions: [3H] DTG; PC12 cells; mean ± SEM, three independent experiments
Lab note: compare Ki with 60 nM, writing YES if less and NO if equal or more.

Before answering, review these 2 worked examples.
{"smiles.text": "Cl.c1ccc(OCc2cc(OCCNC3CCC3)no2)cc1", "assigned.class": "NO"}
{"smiles.text": "Cl.c1ccc(OCc2cc(OCCN(C3CCC3)C3CCC3)no2)cc1", "assigned.class": "YES"}

Turning now to a further compound:
I wonder whether "CN(CCOc1cc(COc2cccc(F)c2)on1)C1CCC1.Cl" has Ki below 60 nM. Can you tell?
NO
